Source listed as ChEMBL document CHEMBL1201862.

Tested on: EKVX
Test: NCI tumour cell line growth inhibition, 48 h
Activity calls are given as the source filed them. Rule as the data show it: active = GI50 up to about 1.1 µM and inactive = higher.
MEASURED_ATTRIBUTE: GI50

Use these answered entries as a reference point.
Look up GI50 for this compound: CCN(CC)C(=O)CCCCCCCCC1CO1 (configuration not stated)
> 100 µM (inactive)

Please give the result for CCCN(CCC)c1c([N+](=O)[O-])cc(C(=O)N(CC)CC)cc1[N+](=O)[O-] too.
18.6 µM (inactive)

Below are some compounds; for each one, tell me its GI50.
1. CC(C)(CCCCC(C)(C)C1NC(=O)N1)C1NC(=O)N1
2. Clc1nc(NC23CC4CC(CC(C4)C2)C3)nc(NC23CC4CC(CC(C4)C2)C3)n1
3. CCCCCCCCCCCc1cc(=O)c2c(O)cccc2o1
4. CCC(=O)Nc1ccc(/N=C/c2cccc(Oc3ccccc3)c2)cc1

1. > 10 µM (inactive)
2. > 89.9 µM (inactive)
3. 56.1 µM (inactive)
4. 65.5 µM (inactive)

Field request: GI50 | item: O=c1c(C(c2ccc(/C=C/c3ccccc3)cc2)c2c(O)oc3cc(O)ccc3c2=O)c(O)oc2cc(O)ccc12
> 100 µM (inactive)

* * *

Tested on: M19-MEL
Test: NCI tumour cell line growth inhibition, 48 h
Activity calls are given as the source filed them. Cut-off read from the data, not from the text of the source: active = GI50 up to about 1.1 µM and inactive = higher.
MEASURED_ATTRIBUTE: GI50

Here's what some known entries look like.
// lookup GI50 for O=C1CCC(c2nc3ccccc3o2)C(=O)N1 (stereo not drawn)
> 100 µM (inactive)

Continue with COC12OCCN(C)C1=CC(=O)C1=NNC(C)C12 (stereo not drawn)
> 100 µM (inactive)

Field: next compound
Name the recorded GI50 for COc1ccc(/C=C2/C(=O)N(C(=O)c3ccccc3O)N=C2C)cc1 .
0.542 µM (active)

* * *

For each record, write down the corresponding GI50.
System: OVCAR-8
Test: NCI tumour cell line growth inhibition, 48 h
Activity calls are given as the source filed them. Cut-off read from the data, not from the text of the source: active = GI50 up to about 1.1 µM and inactive = higher.

Recorded GI50 of CCN(CC)c1ccc(/N=C2\C=C(Cl)C(=O)c3ncccc32)c(C)c1 , please.
4.08 µM (inactive)

Go through the items and report each one's GI50.
1. CC[C@@H]1CN2CCC1C[C@@H]2C(O)c1ccnc2ccc(OCCN3CCN(CCOc4ccc5nccc(C(O)[C@@H]6C[C@@H]7CCN6C[C@@H]7CC)c5c4)CC3)cc12 (stereo partly specified)
2. CCOC(=O)CCCc1cc(O)c2c(C)c3[nH]c4ccc(Cl)cc4c3c(C)c2n1

1: 19.3 µM (inactive); 2: 24.9 µM (inactive)

I need GI50 for every entry listed below, if you could help.
1. CN(C)CC/C(=N\Nc1ccc([N+](=O)[O-])cc1)c1ccccc1
2. COc1cc2c(/C=C3/C(=O)Nc4cccc(Cl)c43)c(Cl)[nH]c2cc1C
3. CCCCC1Cc2cc(OC)ccc2-c2nc3cc(OC)ccc3n21.CCCCC1Cc2cc(OC)ccc2-c2nc3ccc(OC)cc3n21 (stereo unspecified)

["14 µM (inactive)", "2.54 µM (inactive)", "15.6 µM (inactive)"]

* * *

Tested on: SK-OV-3
Assay: NCI tumour cell line growth inhibition, 48 h
Where a name gives a salt, the structure may show the parent alone. The source made the active and inactive calls. Cut-off read from the data, not from the text of the source: active = GI50 up to about 1.1 µM and inactive = higher.
MEASURED_ATTRIBUTE: GI50

Some solved entries appear below for comparison.
Checklist item: GI50 tested on SK-OV-3, entry COc1ccc(/C=N/c2ccc(-c3nc4ccccc4s3)cc2)cc1OC , value?
31 µM (inactive)

Note, next up: CC(C)(C)c1cc(OCc2nnc3sc(-c4ccc(Cl)cc4)nn23)c(Cl)cc1OCc1nnc2sc(-c3ccc(Cl)cc3)nn12
4.06 µM (inactive)

What do you get for c1ccc(COCC23CCN(Cc4ccccc4)C(CC(OCc4ccccc4)C2)S3)cc1 (configuration not stated) ?
> 100 µM (inactive)

Dear colleague, could you please provide GI50 for the compounds listed below?
1. O=C1Oc2cc3c(c4cccc1c24)OCN(c1ccc(Cl)cc1)C3
2. CCCCc1ccc(Nc2nc(N)c3[nH]cnc3n2)cc1
3. CNCCC=C1c2ccccc2CCc2ccccc21 [NORTRIPTYLINE HYDROCHLORIDE]

1. > 100 µM (inactive)
2. 20.8 µM (inactive)
3. 12.6 µM (inactive)

Hi, could you look up GI50 for each item in my list?
1. ClCCCN1CCCCC1CCl (configuration not stated)
2. CC(C)(C)[Si](C)(C)Oc1ccc(C2CNC(=O)C23CCC(=O)N3Cc2ccccc2)cc1 (configuration not stated)
3. O=C1c2ccccc2C(=O)C1C(c1ccc(F)cc1)C1C(=O)c2ccccc2C1=O
4. C[C@]12CC[C@H](O)CC1=CC[C@@H]1C2CC[C@]2(C)Nc3c(cnn3-c3ccccc3)CC12 (some centres not stated)
5. Cc1ccc(NC(=O)C(=O)CC(=O)c2c(C)[n+]([O-])c3ccccc3[n+]2[O-])cc1
6. Oc1ccccc1CNCc1ccccc1O

> 100 µM (inactive)
15.5 µM (inactive)
> 100 µM (inactive)
4.07 µM (inactive)
73.1 µM (inactive)
> 100 µM (inactive)

Quick request: GI50 for each listed item, please.
1. CC1(C)CC(=O)/C(=C/C2CCNC2=S)C(=O)N1 (configuration not stated)
2. CCCCC[C@@H]1CCCC2NC(CCCCCO[Si](c3ccccc3)(c3ccccc3)C(C)(C)C)CCC21 (some centres not stated)

1: > 100 µM (inactive); 2: 21.8 µM (inactive)

List the reported GI50 of each compound below.
1. CC(C)NC1CCCCC2c3ccccc3C12O (configuration not stated)
2. COC(=O)C1=C(C(=O)OC)C2(CCCCCC2=O)OC1=O (configuration not stated)
3. NC(CCCNCc1ccccc1)C(=O)O (configuration not stated)
4. c1ccc(C2=Nc3cccc4cccc(c34)N2)cc1
5. COc1ccc(O)c2c1C(=O)CCCC2=O

> 100 µM (inactive)
> 100 µM (inactive)
> 100 µM (inactive)
> 100 µM (inactive)
> 100 µM (inactive)

Need GI50 for each of these compounds.
1. CN1C(=S)C(c2ccccc2)Sc2ccccc21 (configuration not stated)
2. NCC(=O)NC1(c2cc3ccccc3s2)CCCCC1
3. C/C(=C\c1ccccc1)C(=O)CCN1CCOCC1
4. CN(C)/N=N/c1c[nH]nc1C(N)=O
5. COC1=CC(c2ccc(Br)[nH]2)=N/C1=C/NCC(C)C

1: 42.8 µM (inactive); 2: 67.6 µM (inactive); 3: > 100 µM (inactive); 4: > 100 µM (inactive); 5: 2.53 µM (inactive)

Hey, quick one: what's GI50 for each of these?
1. Cc1[nH]c2ncn(/N=C/c3ccccc3)c(=N)c2c1Cc1ccccc1
2. CC(C)OP(=O)(OC(C)C)c1ncn(-c2ccc([N+](=O)[O-])cc2)n1

1: > 100 µM (inactive); 2: > 100 µM (inactive)

For each listed entry, give its GI50.
1. O=C(O)[C@@]1(Cc2ccc(O)cc2)C[C@@H]2Cc3ccccc3N2N1
2. O=c1cc2n(c(=O)[nH]1)C1OC(C(O)C1O)[C@@H]2CCO (some centres not stated)
3. CCOc1ccnc2c(OC)c(C)c3nc4ccccc4nc3c12
4. CCN(CC)CCNC(=O)c1nn(C)c(=S)[nH]c1=S
5. CC(C)[Si]1(C(C)C)OCC2OC(n3ccc(=O)[nH]c3=O)C([Se]c3ccccc3)C2O[Si](C(C)C)(C(C)C)O1 (configuration not stated)
6. CCCc1c(C(=O)OCC)[nH]c(-c2ccc(-c3[nH]c(C(=O)OCC)c(CCC)c3C(=O)OCC)s2)c1C(=O)OCC

["> 100 µM (inactive)", "> 100 µM (inactive)", "> 100 µM (inactive)", "> 100 µM (inactive)", "16.5 µM (inactive)", "27.1 µM (inactive)"]

* * *

Assignment: determine reported GI50 for the given compounds.
Tested on: OVCAR-5
Assay: NCI tumour cell line growth inhibition, 48 h
Activity calls are given as the source filed them. Rule as the data show it: active = GI50 up to about 1.1 µM and inactive = higher.

Example compounds with recorded GI50:
Fill in the blank: the reported GI50 of ClCCCN1CCCCC1CCl (centres undefined) is ____.
> 100 µM (inactive)

How about this compound: Nc1ccc(C(=O)O)cc1.Nc1nc(N)c2nc[nH]c2n1
17.1 µM (inactive)

Next: CCCCCCCCCCn1cccc1/C=C/c1ccc(/C=C/c2cccn2CCCCCCCCCC)cc1
> 100 µM (inactive)

Subsequent entry: CC[n+]1c(/C=C/c2ccc(N(CCCl)CCCl)cc2)ccc2cc(I)ccc21
1.96 µM (inactive)

Input Nc1nc(Cl)cc(NCC2(CO)CCCC2)n1
> 100 µM (inactive)

The following compounds each have a reported value; give each one's GI50.
1. CCN(CC)Cc1ccc(Nc2c3ccccc3nc3ccccc23)cc1
2. O=C(CCCCCCCCC(=O)OCCCn1cc(C(=O)NC(=O)OCc2ccccc2)c(=O)[nH]c1=O)OCCCn1cc(C(=O)NC(=O)OCc2ccccc2)c(=O)[nH]c1=O
3. COc1ccc2c(n1)Sc1nc3ccccc3nc1N2

1. 2.17 µM (inactive)
2. > 100 µM (inactive)
3. 56.1 µM (inactive)
